SYSTEM: human-mouse chimeric GPR119 (Homo sapiens, UniProt Q8TDV5, A235T/C313R/C323Y/E253K/F304I/F307L/G211A/G245S/H255C/K284R/L224V/L258Q/L288Q/L301F/P218V/P318T/Q252H/R262K/S214P/S219N/S228A/S309P/S322A/T217S/T239S/V227I/V300F)
Construct: the first 198 amino acids of human GPR119; the C-terminal 137 amino acids of the mouse receptor; expressed in transfected cells
Sequence (Q8TDV5 with tags, fused parts or gaps with the stated changes): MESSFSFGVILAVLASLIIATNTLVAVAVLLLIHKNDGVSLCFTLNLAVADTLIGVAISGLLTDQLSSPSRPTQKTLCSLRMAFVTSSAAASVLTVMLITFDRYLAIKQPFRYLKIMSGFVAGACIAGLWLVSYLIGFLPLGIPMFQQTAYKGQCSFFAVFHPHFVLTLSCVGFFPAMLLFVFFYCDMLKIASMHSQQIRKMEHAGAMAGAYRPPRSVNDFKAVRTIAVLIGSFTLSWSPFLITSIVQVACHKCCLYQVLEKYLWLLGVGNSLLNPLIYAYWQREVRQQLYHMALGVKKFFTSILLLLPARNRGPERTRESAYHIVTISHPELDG
ASSAY_TEXT: Tet-inducible cAMP assay
Type: cell-based
TEST_PARAMETERS: cAMP accumulation (HTRF), Flp-In-T-Rex-HEK293 cells expressing chimeric human/mouse GPR119, 50 min incubation; read-out: GPR119 EC50
pEC50: −log10 of the molar value.
READOUT_TYPE: pEC50

Example molecules with recorded pEC50:
* CCCc1cnc(N2CCC(Cc3nc4ccc(C5CCN(S(=O)(=O)CCC)CC5)cc4o3)CC2)nc1 | 7.31
* CCCc1cnc(N2CCC(Oc3nc4ccc(C5=CCN(S(=O)(=O)CCN6CC(O)C6)CC5)cc4s3)CC2)nc1 | 7.47

I. CCCc1cnc(N2CCC(Cc3nc4ccc(C5=CCN(S(=O)(=O)CCC(C)(C)O)CC5)cc4o3)CC2)nc1
II. CCCS(=O)(=O)N1CC=C(c2ccc3nc(OC4CCN(c5nnc(C)s5)CC4)sc3c2)CC1
// query Please choose the item with the lower pEC50 value from this pair: I and II Please respond with the label that marks your chosen entry.
// result II

* * *

SYSTEM: human-mouse chimeric GPR119 (Homo sapiens, UniProt Q8TDV5, A235T/C313R/C323Y/E253K/F304I/F307L/G211A/G245S/H255C/K284R/L224V/L258Q/L288Q/L301F/P218V/P318T/Q252H/R262K/S214P/S219N/S228A/S309P/S322A/T217S/T239S/V227I/V300F)
Construct: the first 198 amino acids of human GPR119; the C-terminal 137 amino acids of the mouse receptor; expressed in transfected cells
ASSAY_TEXT: Tet-inducible cAMP assay
Format: cell-based
TEST_PARAMETERS: cAMP accumulation (HTRF), Flp-In-T-Rex-HEK293 cells expressing chimeric human/mouse GPR119, 50 min incubation; read-out: GPR119 EC50
pEC50: −log10 of the molar value.
READOUT_TYPE: pEC50

• CCCc1cnc(N2CCC(Oc3nc4ccc(C5=CCN(S(=O)(=O)CCCO)CC5)cc4s3)CC2)nc1 = 7.95

A. CCCS(=O)(=O)N1CC=C(c2ccc3nc(OC4CCN(S(=O)(=O)C5CC5)CC4)sc3c2)CC1
B. CC(C)(O)CCS(=O)(=O)N1CCN(c2ccc3nc(OC4CCN(c5ncc(F)cn5)CC4)sc3c2)CC1
C. CCCc1cnc(N2CCC(Oc3nc4ccc(C5=CCN(C(=O)c6csnn6)CC5)cc4s3)CC2)nc1
// query Put the items in sequence by pEC50, from largest down. Answer format: the labels, ordered as requested.
// result B, A, C
(B: 8.08, A: 7.54, C: 6.10)

* * *

SYSTEM: human-mouse chimeric GPR119 (Homo sapiens, UniProt Q8TDV5, A235T/C313R/C323Y/E253K/F304I/F307L/G211A/G245S/H255C/K284R/L224V/L258Q/L288Q/L301F/P218V/P318T/Q252H/R262K/S214P/S219N/S228A/S309P/S322A/T217S/T239S/V227I/V300F)
Construct: the first 198 amino acids of human GPR119; the C-terminal 137 amino acids of the mouse receptor; expressed in transfected cells
ASSAY_TEXT: Tet-inducible cAMP assay
Type: cell-based
READOUT_TYPE: EC50 (nM)
State the answer as a number, implicitly in nM.

# EC50 (compound: CCCc1cnc(N2CCC(Oc3nc4ccc(C5=CCN(S(=O)(=O)CCCCCCP(=O)(OC)OC)CC5)cc4s3)CC2)nc1 [Example 177] ) is 9.7

* * *

SYSTEM: human-mouse chimeric GPR119 (Homo sapiens, UniProt Q8TDV5, A235T/C313R/C323Y/E253K/F304I/F307L/G211A/G245S/H255C/K284R/L224V/L258Q/L288Q/L301F/P218V/P318T/Q252H/R262K/S214P/S219N/S228A/S309P/S322A/T217S/T239S/V227I/V300F)
Construct: the first 198 amino acids of human GPR119; the C-terminal 137 amino acids of the mouse receptor; expressed in transfected cells
ASSAY_TEXT: Tet-inducible cAMP assay
Type: cell-based
TEST_PARAMETERS: cAMP accumulation (HTRF), Flp-In-T-Rex-HEK293 cells expressing chimeric human/mouse GPR119, 50 min incubation; read-out: GPR119 EC50
READOUT_TYPE: EC50 (nM)

# annotated cases, reported EC50 shown
- CCCc1cnc(N2CCC(Oc3nc4ccc(C5=CCN(S(=O)(=O)CCC6(O)CC6)CC5)cc4s3)CC2)nc1 [Example 131]: 5
- CCCc1cnc(N2CCC(Oc3nc4ccc(C5=CCN(S(=O)(=O)c6cccc(C(=O)O)c6)CC5)cc4s3)CC2)nc1 [Example 79]: 713
- CCCc1cnc(N2CC[C@H](Oc3nc4ccc(C5=CCN(S(C)(=O)=O)CC5)cc4s3)C2)nc1 [Example 116]: 22.1

I. CN(C)S(=O)(=O)N1CC=C(c2ccc3nc(OC4CCN(c5ncc(F)cn5)CC4)sc3c2)CC1 [Example 49]
II. CCCS(=O)(=O)N1CC=C(c2ccc3nc(OCC4[C@H]5CN(Cc6ccccc6)C[C@@H]45)sc3c2)CC1 (some centres unmarked) [Example 127]
// query Endpoint returns whichever of I and II has the numerically higher EC50. Give the label of your selection.
// result II
(II: 29 nM, I: 7.5 nM)

* * *

SYSTEM: human-mouse chimeric GPR119 (Homo sapiens, UniProt Q8TDV5, A235T/C313R/C323Y/E253K/F304I/F307L/G211A/G245S/H255C/K284R/L224V/L258Q/L288Q/L301F/P218V/P318T/Q252H/R262K/S214P/S219N/S228A/S309P/S322A/T217S/T239S/V227I/V300F)
Construct: the first 198 amino acids of human GPR119; the C-terminal 137 amino acids of the mouse receptor; expressed in transfected cells
ASSAY_TEXT: Tet-inducible cAMP assay
Format: cell-based
TEST_PARAMETERS: cAMP accumulation (HTRF), Flp-In-T-Rex-HEK293 cells expressing chimeric human/mouse GPR119, 50 min incubation; read-out: GPR119 EC50
Procedure: The in vitro modulation of recombinant human GPR119 was determined as follows. A human-mouse chimeric GPR119 expression construct encoding 3 copies of the FLAG epitope tag, the first 198 amino acids of human GPR119 and the C-terminal 137 amino acids of the mouse receptor was cloned into a tetracycline inducible vector pcDNA5/FRT/TO (Invitrogen #V6520-20), which includes a hygromycin-resistance marker. […]
READOUT_TYPE: EC50 (nM)

Guide cases for EC50, answers given:
- CCCCOC(=O)N1CC=C(c2ccc3nc(OC4CCN(c5ncc(CCC)cn5)CC4)sc3c2)CC1: 142
- CCCS(=O)(=O)N1CC=C(c2ccc3nc(OC4CCN(C(=O)c5csnn5)CC4)sc3c2)CC1: 37
- Cc1nnc(N2CCC(Oc3nc4ccc(-c5ccc(S(C)(=O)=O)cc5)cc4s3)CC2)s1: 20.4
- CCCc1cnc(N2CC[C@@H](Oc3nc4ccc(C5=CCN(S(C)(=O)=O)CC5)cc4s3)C2)nc1: 953

a. CCCc1cnc(N2CCC(Oc3nc4ccc(C5=CCN(c6ncc(C)s6)CC5)cc4s3)CC2)nc1
b. CC(C)(O)CCS(=O)(=O)N1CC=C(c2ccc3nc(OC4CCN(S(=O)(=O)CC(F)(F)F)CC4)sc3c2)CC1
// query Response body: label of entry with the larger EC50; valid values a , b . Refer to your chosen entry by its label in the reply.
// result a
(a: 547 nM, b: 169 nM)
